Assay: self-splicing fitness, log relative to wild type (ln ratio); higher = more splicing; Tetrahymena group I intron in knt gene, E. coli kanamycin selection, DiMSum; sequences stand for … in CUCUCU…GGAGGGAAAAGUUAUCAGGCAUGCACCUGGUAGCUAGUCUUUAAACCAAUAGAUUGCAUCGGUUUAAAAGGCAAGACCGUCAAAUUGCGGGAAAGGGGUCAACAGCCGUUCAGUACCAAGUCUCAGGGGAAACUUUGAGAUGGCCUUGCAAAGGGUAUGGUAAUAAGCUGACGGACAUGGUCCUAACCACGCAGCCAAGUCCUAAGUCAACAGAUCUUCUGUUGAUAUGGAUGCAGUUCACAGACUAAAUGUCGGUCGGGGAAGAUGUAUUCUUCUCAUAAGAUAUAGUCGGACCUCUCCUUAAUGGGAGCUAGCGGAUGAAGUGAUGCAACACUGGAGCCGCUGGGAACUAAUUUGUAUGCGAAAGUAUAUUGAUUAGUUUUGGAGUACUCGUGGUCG;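 note: selection with 25 µg/mL kanamycin versus none on LB agar overnight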
Conditions: 30 °C
Recorded self-splicing fitness (ln) determines the label; the label ranges are low: < -3; middle: ≥ -3 and < -2; high: ≥ -2

See these solved cases before continuing.
AUCUAGCAAUAUUACGAGGU low
AGCUAGCAAUAUUACGACUU high
AUUAAGCAAUAUUACGGAGC middle
AAUCAGCAAUAUUACGCAUG high
AUUUAGCAAUAUUACGAGGA middle

Quick check: band for `CUACAGCAAUAUUACGCUUA`
low

Exercise: read the entry `CCCCAGCAAUAUUACGGGCA` and state which class it falls under.
middle

Assign a bin to `CUCCAGCAAUAUUACGCGGA`
low

In plain terms, what class is `CACAAGCAAUAUUACGGUUU` ?
low

* * *

Assay: self-splicing fitness, log relative to wild type (ln ratio); higher = more splicing; Tetrahymena group I intron in knt gene, E. coli kanamycin selection, DiMSum; sequences stand for … in CUCUCU…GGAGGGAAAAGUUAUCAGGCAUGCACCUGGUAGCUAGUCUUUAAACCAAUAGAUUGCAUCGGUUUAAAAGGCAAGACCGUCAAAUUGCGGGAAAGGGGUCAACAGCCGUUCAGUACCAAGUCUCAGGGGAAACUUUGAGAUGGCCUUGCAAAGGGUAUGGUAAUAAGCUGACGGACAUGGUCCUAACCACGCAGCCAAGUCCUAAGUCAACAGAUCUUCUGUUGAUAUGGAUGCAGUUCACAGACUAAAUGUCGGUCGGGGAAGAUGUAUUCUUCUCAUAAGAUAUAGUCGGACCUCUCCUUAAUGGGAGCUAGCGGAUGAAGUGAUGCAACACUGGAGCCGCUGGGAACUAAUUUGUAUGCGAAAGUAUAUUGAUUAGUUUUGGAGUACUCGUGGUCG
Settings: 30 °C
The label depends only on self-splicing fitness (ln): TRUE if it is at least -2, FALSE if it is smaller.

Evaluate `CCCAAGCAAUAUUACGCGGU` : self-splicing fitness (ln) at minimum -2?
FALSE

Quick check: does `GGGCAGCAAUAUUACGGGGC` have self-splicing fitness (ln) greater than or equal to -2?
TRUE

Decide: is the reported value of self-splicing fitness (ln) for `AAUUAGCAAUAUUACGUUAU` equal to or greater than -2?
FALSE

* * *

Test: self-splicing fitness, log relative to wild type (ln ratio); higher = more splicing; Tetrahymena group I intron in knt gene, E. coli kanamycin selection, DiMSum; sequences stand for … in CUCUCU…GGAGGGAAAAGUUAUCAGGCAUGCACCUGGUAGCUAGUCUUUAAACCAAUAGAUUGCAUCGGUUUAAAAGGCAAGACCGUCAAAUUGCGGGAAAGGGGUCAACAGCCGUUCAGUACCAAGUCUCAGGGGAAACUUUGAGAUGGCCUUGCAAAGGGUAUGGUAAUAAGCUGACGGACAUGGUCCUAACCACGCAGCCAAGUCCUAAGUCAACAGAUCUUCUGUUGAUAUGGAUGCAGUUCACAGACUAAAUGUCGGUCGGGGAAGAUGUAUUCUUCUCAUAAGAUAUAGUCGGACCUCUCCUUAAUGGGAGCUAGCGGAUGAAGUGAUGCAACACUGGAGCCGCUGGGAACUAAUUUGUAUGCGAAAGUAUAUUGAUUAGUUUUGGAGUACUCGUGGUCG
Details: 30 °C
attribute_measured: self-splicing fitness (ln)
Reply: number alone, nothing else.

Recorded self-splicing fitness (ln) of `CGCUAGCAAUAUUACGCUCU` , please.
-1.58

* * *

Assay: self-splicing fitness, log relative to wild type (ln ratio); higher = more splicing; Tetrahymena group I intron in knt gene, E. coli kanamycin selection, DiMSum; sequences stand for … in CUCUCU…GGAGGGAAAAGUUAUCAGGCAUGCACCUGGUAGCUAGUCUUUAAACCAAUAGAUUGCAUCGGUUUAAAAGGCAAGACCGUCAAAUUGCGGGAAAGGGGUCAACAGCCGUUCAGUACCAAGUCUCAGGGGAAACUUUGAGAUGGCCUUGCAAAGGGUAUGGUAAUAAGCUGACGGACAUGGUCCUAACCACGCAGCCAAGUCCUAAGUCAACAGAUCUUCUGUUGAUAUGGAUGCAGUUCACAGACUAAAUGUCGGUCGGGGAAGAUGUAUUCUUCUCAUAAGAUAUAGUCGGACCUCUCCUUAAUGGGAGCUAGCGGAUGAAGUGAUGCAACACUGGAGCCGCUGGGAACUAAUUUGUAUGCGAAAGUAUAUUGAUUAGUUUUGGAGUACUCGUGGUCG
Settings: 37 °C
attribute_measured: self-splicing fitness (ln)
I only need the number, thanks.

Fill in the blank: the reported self-splicing fitness (ln) of `ACGAAGCAAUAUUACGAUCU` is ____.
-0.244

So what's the measured self-splicing fitness (ln) for this one? `AUUCAGCAAUAUUACGAGGG`
-1.42

* * *

Assay: self-splicing fitness, log relative to wild type (ln ratio); higher = more splicing; Tetrahymena group I intron in knt gene, E. coli kanamycin selection, DiMSum; sequences stand for … in CUCUCU…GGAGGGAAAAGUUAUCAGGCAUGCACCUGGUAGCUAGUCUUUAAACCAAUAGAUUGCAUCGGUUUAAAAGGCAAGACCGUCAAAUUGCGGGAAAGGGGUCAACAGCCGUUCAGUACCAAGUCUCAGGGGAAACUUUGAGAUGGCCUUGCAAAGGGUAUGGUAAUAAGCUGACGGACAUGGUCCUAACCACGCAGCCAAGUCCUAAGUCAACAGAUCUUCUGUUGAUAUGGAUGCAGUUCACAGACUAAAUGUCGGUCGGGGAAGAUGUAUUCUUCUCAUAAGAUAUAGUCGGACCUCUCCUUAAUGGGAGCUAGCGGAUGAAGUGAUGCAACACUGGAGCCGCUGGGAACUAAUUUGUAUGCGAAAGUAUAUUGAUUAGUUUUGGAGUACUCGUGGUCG
Conditions: 37 °C
self-splicing fitness (ln) values for the sequences below.
Number, no unit, nothing else.

// worked examples, self-splicing fitness (ln) included
GUGGAGCAAUAUUACGCAGU -2.58
GCUGAGCAAUAUUACGAAAG -1.46
CCUUAGCAAUAUUACGGGAG -3.67
UACAAGCAAUAUUACGACGA 0.0319
AGGUAGCAAUAUUACGGGCC -1.5

Entry under review: `CAUCAGCAAUAUUACGAUUU` . Reported self-splicing fitness (ln)?
0.205

Item under review: `CUUGAGCAAUAUUACGAGUA` . Reported self-splicing fitness (ln)?
-2.52

Name the recorded self-splicing fitness (ln) for `CUGGAGCAAUAUUACGCGCG` .
-0.917

Request the reported self-splicing fitness (ln) associated with `CCUAAGCAAUAUUACGGGUU`
-2.84

* * *

Assay: self-splicing fitness, log relative to wild type (ln ratio); higher = more splicing; Tetrahymena group I intron in knt gene, E. coli kanamycin selection, DiMSum; sequences stand for … in CUCUCU…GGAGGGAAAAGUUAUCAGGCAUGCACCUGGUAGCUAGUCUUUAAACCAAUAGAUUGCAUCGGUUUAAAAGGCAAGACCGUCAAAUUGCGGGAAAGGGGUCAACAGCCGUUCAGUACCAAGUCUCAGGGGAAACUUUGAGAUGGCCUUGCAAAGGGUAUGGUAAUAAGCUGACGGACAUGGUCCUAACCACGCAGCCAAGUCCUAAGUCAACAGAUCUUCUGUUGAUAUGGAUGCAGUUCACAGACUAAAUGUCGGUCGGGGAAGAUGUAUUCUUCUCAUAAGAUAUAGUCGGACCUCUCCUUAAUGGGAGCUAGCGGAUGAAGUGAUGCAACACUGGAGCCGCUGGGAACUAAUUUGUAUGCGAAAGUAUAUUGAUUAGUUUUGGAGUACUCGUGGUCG
Settings: 37 °C
Measured self-splicing fitness (ln) accompanies every entry in the list below.
I only need the number, thanks.

// known answers, use as guide
UCUAAGCAAUAUUACGUAUA -1.45
ACUAAGCAAUAUUACGUCGA -1.45
CGAUAGCAAUAUUACGCGCG -1.59
UGUGAGCAAUAUUACGAGGG -3.54
UAGGAGCAAUAUUACGGAUA -1.46
AGCGAGCAAUAUUACGUCCA -1.1
GAACAGCAAUAUUACGGUUC -2.93

Please look at the following sequence next.
Tell me the measured self-splicing fitness (ln) of `CUCAAGCAAUAUUACGCGGU` , please.
-1.07

// provenance: the supplement of paper PMC7877785
